# Test system: Mus musculus
# assay info: ED50 was evaluated from scMET test in mice by delivering intraperitoneally and the value was determined at peak time effect or peak neurologic effect.
# Assay type: functional
# condition info: ip
test readout: ED50 (mg/kg)

>>> print(df.to_string())
                                   molecule  observed_value
0  CCC1(c2ccccc2)C(=O)NC(=O)NC1=O [PHENOBARBITAL]            13.2
1  CCC1(C)CC(=O)NC1=O (centres undefined) [ETHOSUXIMIDE]             130
2  CCC1(c2ccccc2)NC(=O)N(C)C1=O (centres undefined) [MEPHENYTOIN]              31
3  CC(C)C[C@H]1C(=O)N=C(N)N1C(=O)OCc1ccccc1             141
